system: Fibroblast; assay: Multiplex assay against human fibroblast; format: toxicity, cell-based; conditions: 24 h, 10 µM, compound concentration 10 uM, replicate 1
With a cut-off of 70%, any Population Tubulin-Different-Phenotype (%) strictly below it is called yes; any Population Tubulin-Different-Phenotype (%) meeting it or above is called no.

[
  {
    "molecule": "CSc1ccccc1N1CCN(CCCCCC(=O)NC2CCCc3ccccc32)CC1.Cl (configuration not stated)",
    "classLabel": "no"
  },
  {
    "molecule": "O=S(=O)(c1ccccc1)c1cnc2c(N3CCNCC3)cccc2c1 [INTEPIRDINE]",
    "classLabel": "yes"
  },
  {
    "molecule": "Cc1ccc(/C(=C\\CN2CCCC2)c2ccccn2)cc1",
    "classLabel": "yes"
  },
  {
    "molecule": "Cl.Clc1ccc2nsnc2c1NC1=NCCN1 [TIZANIDINE HYDROCHLORIDE]",
    "classLabel": "yes"
  },
  {
    "molecule": "CN1CCN(c2nc3cc(C(F)(F)F)ccc3n3cccc23)CC1.O=C(O)/C=C\\C(=O)O.O=C(O)/C=C\\C(=O)O",
    "classLabel": "no"
  },
  {
    "molecule": "c1cc(OCCCN2CCCCC2)ccc1CN1CCCCC1",
    "classLabel": "yes"
  },
  {
    "molecule": "CC[C@H]1OC(=O)[C@H](C)[C@@H](O[C@H]2C[C@@](C)(OC)[C@@H](O)[C@H](C)O2)[C@H](C)[C@@H](O[C@@H]2O[C@H](C)C[C@H](N(C)C)[C@H]2O)[C@@]2(C)CC(C)=C(O2)[C@H](C)[C@@H](O)[C@]1(C)O",
    "classLabel": "no"
  },
  {
    "molecule": "CSCC[C@H](NC=O)C(=O)N[C@@H](CC(C)C)C(=O)N[C@@H](Cc1ccccc1)C(=O)O",
    "classLabel": "yes"
  },
  {
    "molecule": "CCCn1c(=O)c2[nH]c(C3CCCC3)nc2n(CCC)c1=O",
    "classLabel": "yes"
  },
  {
    "molecule": "C[C@H]1[C@H]2CC[C@H]3[C@@H]4CC=C5C[C@@H](N(C)C)CC[C@]5(C)[C@H]4CC[C@]23CN1C",
    "classLabel": "yes"
  },
  {
    "molecule": "COc1cc(NC(=O)CCN2CCC(OC(=O)Nc3ccccc3-c3ccccc3)CC2)c(Cl)cc1CNC[C@H](O)c1ccc(O)c2[nH]c(=O)ccc12",
    "classLabel": "yes"
  }
]

====

system: Fibroblast; test: Multiplex assay against human fibroblast; assay type: toxicity, cell-based; conditions: 48 h, 10 µM, compound concentration 10 uM, replicate 2

[
  {
    "querySmiles": "CCCn1c(=O)c2[nH]c(C3CCCC3)nc2n(CCC)c1=O",
    "targetOrSystem": "Fibroblast",
    "Total Cell Count": 136
  },
  {
    "querySmiles": "CC(C)(C)c1ccc(S(=O)(=O)Nc2ccc(Cl)cc2C(=O)c2cc[n+]([O-])cc2)cc1",
    "targetOrSystem": "Fibroblast",
    "Total Cell Count": 122
  },
  {
    "querySmiles": "N[C@@]1(C(=O)O)CO[C@H]2[C@H](C(=O)O)[C@H]21",
    "targetOrSystem": "Fibroblast",
    "Total Cell Count": 140
  },
  {
    "querySmiles": "CN(C)c1ccnc2sc3c(=O)n(N4CCCCCC4)cnc3c12",
    "targetOrSystem": "Fibroblast",
    "Total Cell Count": 131
  },
  {
    "querySmiles": "CCOc1c2c(c(OCC)c3ncccc13)CN(c1ccc(CS(=O)(=O)NC(=O)Cc3ccccc3OC)cc1C)C2=O",
    "targetOrSystem": "Fibroblast",
    "Total Cell Count": 131
  },
  {
    "querySmiles": "COc1cc(NC(=O)CCN2CCC(OC(=O)Nc3ccccc3-c3ccccc3)CC2)c(Cl)cc1CNC[C@H](O)c1ccc(O)c2[nH]c(=O)ccc12",
    "targetOrSystem": "Fibroblast",
    "Total Cell Count": 144
  },
  {
    "querySmiles": "CC[C@H]1OC(=O)[C@H](C)[C@@H](O[C@H]2C[C@@](C)(OC)[C@@H](O)[C@H](C)O2)[C@H](C)[C@@H](O[C@@H]2O[C@H](C)C[C@H](N(C)C)[C@H]2O)[C@@]2(C)CC(C)=C(O2)[C@H](C)[C@@H](O)[C@]1(C)O",
    "targetOrSystem": "Fibroblast",
    "Total Cell Count": 139
  },
  {
    "querySmiles": "CC(=O)NCCc1c(Cc2ccccc2)[nH]c2ccccc12",
    "targetOrSystem": "Fibroblast",
    "Total Cell Count": 111
  }
]

====

test system: Fibroblast; assay: Multiplex assay against human fibroblast; format: toxicity, cell-based; conditions: 12 h, 10 µM, compound concentration 10 uM, replicate 1
Listed below: Population Mitotic Cells (%) values for each entry.

[
  {
    "molecule": "CC1(COc2ccc3c(c2)ncn3-c2ccc3cccc(N4CCC(N)CC4)c3n2)COC1",
    "Population Mitotic Cells (%)": 66
  },
  {
    "molecule": "CCOc1c2c(c(OCC)c3ncccc13)CN(c1ccc(CS(=O)(=O)NC(=O)Cc3ccccc3OC)cc1C)C2=O",
    "Population Mitotic Cells (%)": 64
  },
  {
    "molecule": "COc1ccc2c(c1)C(C(=O)N(Cc1ccc(N(C)C)cc1)c1ccc(C(C)C)cc1)CCC2.Cl (centres undefined)",
    "Population Mitotic Cells (%)": 41
  },
  {
    "molecule": "Cc1ccc(C(C)(O)c2nc3ccccc3s2)c(C)c1 (centres undefined)",
    "Population Mitotic Cells (%)": 56
  },
  {
    "molecule": "CN1CCN2c3ncccc3Cc3ccccc3C2C1 (centres undefined)",
    "Population Mitotic Cells (%)": 55
  },
  {
    "molecule": "O=C(NCCO)c1cccc(-c2cc(Nc3ccc(OC(F)(F)F)cc3)ncn2)c1",
    "Population Mitotic Cells (%)": 62
  },
  {
    "molecule": "O=C1COc2nccc(-c3ccccc3F)c2CN1Cc1cc(C(F)(F)F)cc(C(F)(F)F)c1",
    "Population Mitotic Cells (%)": 45
  },
  {
    "molecule": "Oc1c(CN2CCN(c3ccccn3)CC2)cc(Cl)c2cccnc12",
    "Population Mitotic Cells (%)": 58
  },
  {
    "molecule": "O=C(O)c1cc2ccccc2c(Cc2c(O)c(C(=O)O)cc3ccccc23)c1O",
    "Population Mitotic Cells (%)": 60
  }
]

====

test system: U2OS; assay: Multiplex assay against U2OS; type: toxicity, cell-based; conditions: human, 48 h, 10 µM, compound concentration 10 uM, replicate 2
recordedEndpoint: Population Tubulin-Different-Phenotype (%)

[
  {
    "compound": "CC(C)(C)c1ccc(S(=O)(=O)Nc2ccc(Cl)cc2C(=O)c2cc[n+]([O-])cc2)cc1",
    "testValue": "11%"
  },
  {
    "compound": "CC[C@H]1OC(=O)[C@H](C)[C@@H](O[C@H]2C[C@@](C)(OC)[C@@H](O)[C@H](C)O2)[C@H](C)[C@@H](O[C@@H]2O[C@H](C)C[C@H](N(C)C)[C@H]2O)[C@@]2(C)CC(C)=C(O2)[C@H](C)[C@@H](O)[C@]1(C)O",
    "testValue": "88%"
  },
  {
    "compound": "COc1ccc2c(c1)C(C(=O)N(Cc1ccc(N(C)C)cc1)c1ccc(C(C)C)cc1)CCC2.Cl (configuration not stated)",
    "testValue": "42%"
  },
  {
    "compound": "Cc1ccccc1C(=O)Nc1ccc(C(=O)N2CCCC(N(C)C)c3ccccc32)cc1.Cl (configuration not stated)",
    "testValue": "13%"
  },
  {
    "compound": "O=C(O)c1cc2ccccc2c(Cc2c(O)c(C(=O)O)cc3ccccc23)c1O",
    "testValue": "2%"
  },
  {
    "compound": "c1cc(OCCCN2CCCCC2)ccc1CN1CCCCC1",
    "testValue": "4%"
  },
  {
    "compound": "CN(C)c1ccnc2sc3c(=O)n(N4CCCCCC4)cnc3c12",
    "testValue": "23%"
  },
  {
    "compound": "CN1CCN(c2nc3cc(C(F)(F)F)ccc3n3cccc23)CC1.O=C(O)/C=C\\C(=O)O.O=C(O)/C=C\\C(=O)O",
    "testValue": "9%"
  },
  {
    "compound": "COc1cc(NC(=O)CCN2CCC(OC(=O)Nc3ccccc3-c3ccccc3)CC2)c(Cl)cc1CNC[C@H](O)c1ccc(O)c2[nH]c(=O)ccc12",
    "testValue": "48%"
  },
  {
    "compound": "Oc1c(CN2CCN(c3ccccn3)CC2)cc(Cl)c2cccnc12",
    "testValue": "8%"
  },
  {
    "compound": "CCCC(CCC)C(=O)O",
    "testValue": "4%"
  },
  {
    "compound": "COc1c(C)cc(NC(=O)c2nn(Cc3ccc(F)cc3)c3c2CN(C(=O)c2ccc[nH]2)C[C@]3(C)C(N)=O)cc1C",
    "testValue": "80%"
  },
  {
    "compound": "O=S(=O)(c1ccccc1)c1cnc2c(N3CCNCC3)cccc2c1 [INTEPIRDINE]",
    "testValue": "4%"
  },
  {
    "compound": "CN1CCN2c3ncccc3Cc3ccccc3C2C1 (configuration not stated)",
    "testValue": "3%"
  },
  {
    "compound": "O=C(NCCO)c1cccc(-c2cc(Nc3ccc(OC(F)(F)F)cc3)ncn2)c1",
    "testValue": "1%"
  },
  {
    "compound": "Cc1nc2ccc(Oc3ccc(F)cc3)cc2c(=O)n1C[C@H]1CCCN(C(C)C)C1.Cl",
    "testValue": "35%"
  },
  {
    "compound": "C[C@H]1[C@H]2CC[C@H]3[C@@H]4CC=C5C[C@@H](N(C)C)CC[C@]5(C)[C@H]4CC[C@]23CN1C",
    "testValue": "6%"
  }
]
